- Assay Name: Microsome Stability (15 min), rat
- Format: in vitro ADME
- Applied Conditions: microsomes, value after the slash in Table VIc, read-out: Microsome Stability (15 min) T ½ rat, second value of cell
Measurement Kind: half-life (min)

COc1ccc2c(c1)c(/C=C1\Oc3cc(O)ccc3C1=O)c(C)n2CCN1CCN(C)CC1	8

1. COc1ccc2c(c1)c(/C=C1\Oc3cc(O)cc(O)c3C1=O)c(C)n2CCN1CCN(C)CC1
2. COc1ccc2[nH]c(-c3ccccc3)c(/C=C3\Oc4cc(O)ccc4C3=O)c2c1
From the recorded data, which exceeds the other in half-life: 1 or 2 ? Reply with the label of the item you choose.
1
